- experimental_target: Aldose reductase (Oryctolagus cuniculus)
- Construct: Aldose reductase is isolated by homogenizing the lens in 3 volumes of water; from tissue; host or cells: lens of mature New Zealand rabbits
- protocol_details: Aldose reductase inhibition, in vitro (loss of absorbance at 340 millimicrons, glyceraldehyde substrate, NADPH)
- Assay type: biochemical, New Zealand rabbits (lens)
- measurement_context: 1 × 10^-6 molar concentration of xanthone compound; pH 6.0, 37° C
result_type: inhibition at 1 µM (%)
Provide the reading as a plain figure in %.

Please give the documented inhibition at 1 µM of COc1cccc2c(=O)c3cc(C(=O)O)ccc3oc12
28

Please give the documented inhibition at 1 µM of CC(C)N(C)S(=O)(=O)c1ccc2oc3ccc(C(=O)O)cc3c(=O)c2c1
17

Please give the documented inhibition at 1 µM of CC(C)Oc1ccc2oc3ccc(C(=O)O)cc3c(=O)c2c1
3

Please give the documented inhibition at 1 µM of COc1cc(OC)c2oc3ccc(C(=O)O)cc3c(=O)c2c1
25

Please give the documented inhibition at 1 µM of CC(C)CCOc1cc([S+](C)[O-])cc2c(=O)c3cc(C(=O)O)ccc3oc12 (centres unmarked)
25
